- protocol: Biodistribution of 18F-labeled SST2 ligands in AR42J tumor-bearing mice
- Format: in vivo
- conditions: female, CD1 nu/nu, mouse, spleen, iv, total radioactivity, 1 h post injection, tail vein; read-out: Spleen % ID/g ± SD
property: tissue uptake at 1 h (%ID/g)
# output: bare number, implied unit %ID/g

C[C@@H](O)[C@H](NC(=O)C1CSSCC(NC(=O)C(Cc2ccccc2)NC(=O)CNC(=O)CNC(=O)[C@@H](CC(=O)O)NC(=O)C(CC(=O)O)NC(=O)[C@@H](CNC(=O)CN2CCN(CC(=O)O)CCN(CC(=O)O)CCN(CC(=O)O)CC2)NC(=O)C[N+](C)(C)Cc2ccc([Si](F)(C(C)(C)C)C(C)(C)C)cc2)C(=O)N[C@@H](Cc2ccc(O)cc2)C(=O)NC(Cc2c[nH]c3ccccc23)C(=O)N[C@@H](CCCCN)C(=O)N[C@@H]([C@@H](C)O)C(=O)N1)C(=O)O (some centres unmarked) (natGa complex, metal not drawn) [[Ga]24] :: 0.45

# evaluate next
Ask: Which tissue uptake at 1 h value is on record for C[C@@H](O)[C@H](NC(=O)C1CSSCC(NC(=O)C(Cc2ccccc2)NC(=O)CNC(=O)CNC(=O)CNC(=O)C(CC(=O)O)NC(=O)[C@@H](CC(=O)O)NC(=O)C(CCCNC(N)=O)NC(=O)[C@@H](CNC(=O)C[N+](C)(C)Cc2ccc([Si](F)(C(C)(C)C)C(C)(C)C)cc2)NC(=O)CN2CCN(CC(=O)O)CCN(CC(=O)O)CCN(CC(=O)O)CC2)C(=O)N[C@@H](Cc2ccc(O)cc2)C(=O)NC(Cc2c[nH]c3ccccc23)C(=O)N[C@@H](CCCCN)C(=O)N[C@@H]([C@@H](C)O)C(=O)N1)C(=O)O (some centres unmarked) (natGa complex, metal not drawn) [[Ga]46] ?
Reply: 0.57
